# assay target: Tyrosine-protein kinase Tec (Homo sapiens)
# Sequence (P42680 whole entry): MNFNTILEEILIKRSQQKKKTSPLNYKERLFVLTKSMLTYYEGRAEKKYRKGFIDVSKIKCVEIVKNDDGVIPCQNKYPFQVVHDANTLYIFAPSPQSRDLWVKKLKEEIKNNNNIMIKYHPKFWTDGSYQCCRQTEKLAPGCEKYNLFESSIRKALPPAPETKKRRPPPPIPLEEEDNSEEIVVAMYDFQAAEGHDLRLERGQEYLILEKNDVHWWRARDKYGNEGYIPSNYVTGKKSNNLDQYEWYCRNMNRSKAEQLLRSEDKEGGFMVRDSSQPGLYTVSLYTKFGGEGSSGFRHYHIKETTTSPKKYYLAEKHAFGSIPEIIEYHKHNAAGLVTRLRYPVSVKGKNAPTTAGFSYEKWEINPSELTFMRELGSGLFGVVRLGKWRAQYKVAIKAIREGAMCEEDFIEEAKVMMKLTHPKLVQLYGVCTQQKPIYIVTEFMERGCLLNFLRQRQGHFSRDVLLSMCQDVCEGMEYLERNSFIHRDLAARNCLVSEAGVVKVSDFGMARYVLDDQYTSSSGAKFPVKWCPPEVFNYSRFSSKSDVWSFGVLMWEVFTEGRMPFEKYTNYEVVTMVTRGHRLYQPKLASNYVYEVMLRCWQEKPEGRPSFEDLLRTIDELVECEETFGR
pIC50: −log10 of the molar value.
attribute measured: pIC50

[[record]]
molecule = "C=CC(=O)N1CCC[C@H](c2nn(-c3ccc(Oc4ccccc4)cc3)c3c(N)nccc23)C1 [US11739090, Compound 7B]"
assay_target = "Tyrosine-protein kinase Tec (Homo sapiens)"
recorded_measurement = 8.43

[[record]]
molecule = "C=CC(=O)N1CCC[C@@H](c2nn(-c3ccc(Oc4ccccc4)cc3)c3c(N)nccc23)C1 [US11739090, Compound 7A]"
assay_target = "Tyrosine-protein kinase Tec (Homo sapiens)"
recorded_measurement = 8.47


Provenance of the data: BindingDB's records for patent US11739090
